# ASSAY SYSTEM: AKT1 E17K (Homo sapiens, UniProt P31749, E17K)
# Sequence (P31749 whole entry E17K): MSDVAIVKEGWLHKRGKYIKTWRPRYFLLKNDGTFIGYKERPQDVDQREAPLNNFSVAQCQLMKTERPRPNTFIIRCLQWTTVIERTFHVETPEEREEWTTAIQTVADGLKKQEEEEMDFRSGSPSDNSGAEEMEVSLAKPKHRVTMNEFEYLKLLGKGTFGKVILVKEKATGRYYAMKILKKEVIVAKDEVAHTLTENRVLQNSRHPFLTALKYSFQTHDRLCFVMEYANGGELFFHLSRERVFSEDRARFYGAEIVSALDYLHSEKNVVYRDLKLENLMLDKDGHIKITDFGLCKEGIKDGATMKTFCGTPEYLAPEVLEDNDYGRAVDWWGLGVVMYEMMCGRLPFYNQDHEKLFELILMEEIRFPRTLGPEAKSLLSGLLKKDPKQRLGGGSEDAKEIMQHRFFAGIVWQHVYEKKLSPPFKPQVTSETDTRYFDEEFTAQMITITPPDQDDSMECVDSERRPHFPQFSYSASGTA
# ASSAY: Live cell target engagement by NanoBRET competitive probe displacement, AKT1 E17K
# ASSAY CONTEXT: transfected HEK293 cells, 2 h at 37° C., read-out: AKT1 E17K IC50: GeoMean IC50
ASSAY READOUT: IC50

Please review the following examples before continuing.
1) Nc1ncccc1-c1nc2ccc(-n3ccc(F)n3)nc2n1-c1ccc2c(c1)CC[C@@H]2NC(=O)c1cc(C=O)c(O)c(F)c1F
< 10 nM
2) COc1ccn(-c2ccc3nc(-c4cccnc4N)n(-c4ccc5c(c4)CC[C@@H]5NC(=O)c4ccc(O)c(C=O)c4)c3n2)n1
10 to 100 nM
3) CN1CC(n2ccc(-c3ccc4nc(-c5cccnc5N)n(-c5ccc6c(c5)CC[C@@H]6NC(=O)c5ccc(O)c(C=O)c5)c4n3)n2)C1
10 to 100 nM

Req: Returns the measured IC50 for the input compound. Input: "Nc1ncccc1-c1nc2ccc(-c3ncco3)nc2n1-c1ccc2c(c1)CC[C@@H]2NC(=O)c1ccc(O)c(C=O)c1"
Resp: < 10 nM

Req: Returns the measured IC50 for the input compound. Input: "Nc1ncccc1-c1nc2ccc(OC3CC3)nc2n1-c1ccc2c(c1)CC[C@@H]2NC(=O)c1ccc(O)c(C=O)c1"
Resp: 10 to 100 nM
